target: hMAO-B (Homo sapiens, UniProt P27338); assay: hMAO-B inhibition, Amplex Red fluorometric assay; details: recombinant hMAO-B, p-tyramine substrate; mean SEM
Sequence (P27338 whole entry): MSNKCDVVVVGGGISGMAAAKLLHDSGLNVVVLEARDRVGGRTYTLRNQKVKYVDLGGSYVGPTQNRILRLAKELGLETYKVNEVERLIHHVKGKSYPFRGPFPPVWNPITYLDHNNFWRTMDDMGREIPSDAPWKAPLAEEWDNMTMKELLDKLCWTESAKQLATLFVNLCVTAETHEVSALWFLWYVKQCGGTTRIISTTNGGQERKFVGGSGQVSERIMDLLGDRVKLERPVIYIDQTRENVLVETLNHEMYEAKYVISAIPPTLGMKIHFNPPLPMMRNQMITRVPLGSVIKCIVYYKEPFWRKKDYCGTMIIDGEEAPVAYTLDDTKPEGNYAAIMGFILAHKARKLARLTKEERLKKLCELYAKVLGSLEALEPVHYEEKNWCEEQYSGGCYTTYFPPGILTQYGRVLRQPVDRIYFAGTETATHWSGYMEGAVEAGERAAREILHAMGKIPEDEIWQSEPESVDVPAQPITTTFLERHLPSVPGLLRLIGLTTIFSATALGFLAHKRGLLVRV
pIC50: −log10 of the molar value.
measured property: pIC50

molecule	pIC50
COc1cc(C=O)ccc1OC(=O)/C=C/c1ccc(O)c(O)c1 [Compound 6]	4.79
O=C(/C=C/c1ccc(O)c(O)c1)Oc1cccc(O)c1 [Compound 9]	4.56
O=C(/C=C/c1ccc(O)c(O)c1)Nc1ccc(Br)cc1 [Compound 3]	4.67

A = C=CCc1ccc(OC(=O)/C=C/c2ccc(O)c(O)c2)c(OC)c1 [Compound 7]
B = CCNC(=O)/C=C/c1ccc(O)c(O)c1 [Compound 10]
Exercise: Return label of the item with the larger pIC50. Candidates: A , B . Choose, then provide that item's label.
Key: B
(B: 4.89, A: 4.62)
